Measured TGI, listed per entry.
# Tested on: HOP-92 NSCLC
# measurementNotes: NCI tumour cell line growth inhibition, 48 h
readoutType: TGI

| compound | result |
| --- | --- |
| O=c1c2ccccc2nc(-c2ccccc2Cl)n1NC1OC(CO)C(O)C(O)C1O (centres undefined) | > 100 µM |
| CC(=O)CC(=O)Nn1c(-c2cccs2)nc2ccc(I)cc2c1=O | > 100 µM |
| CCN(CC)CC(C(=O)Nc1c(C)cccc1C)/C(C)=N/NC(N)=S (centres undefined) | > 100 µM |
| CN(C)/C=C/c1ccnc2c1C(=O)c1ccccc1C2=O | > 100 µM |
